// values below are reported inhibition
test: blockers of Trypanosoma cruzi growth in host cells – cell-based, NIH3T3 host, beta-gal parasite, luminescence, cherry-pick, confirmation (AID 651739); conditions: T. cruzi beta-gal in NIH3T3, GalScreen luminescence, 90 h; at 8.35 µM; active compounds read high
Hit rate of the full screen: of about 5,600 compounds, about 4,100 (73%) were called active. Not shown: some 4% with an inconclusive outcome. So high a share suggests a set chosen from earlier hits. Not all results are given here.

SMILES_STR: COc1cccc(S(=O)(=O)Nc2ccc3c(c2)[C@H]2C[C@H](CC(=O)NCc4ccc(Cl)cc4)O[C@H](CO)[C@H]2O3)c1
inhibition / %: 104
//
SMILES_STR: CCc1cnc(N2[C@H](C#N)[C@H](c3ccc(C4=CCCC4)cc3)[C@@H]2CO)s1
inhibition / %: 106
//
SMILES_STR: COc1cccc(S(=O)(=O)N2CCCCN3[C@H](CO)[C@H](c4ccc(-c5ccncc5)cc4)[C@H]3C2)c1
inhibition / %: 110
//
SMILES_STR: CC(C)(C)[S@@](=O)N1Cc2cc(C(=O)NCc3ccc4c(c3)OCO4)nc(-c3cccc(-c4ccccc4)c3)c2[C@H]1CCO
inhibition / %: 105
//
SMILES_STR: O=C(Nc1ccc2c(c1)[C@@H]1C[C@H](CC(=O)N3CCOCC3)O[C@@H](CO)[C@@H]1O2)c1ccc2c(c1)OCO2
inhibition / %: 13.5
//
SMILES_STR: N#C[C@H]1[C@@H](c2ccc(C3=CCCCC3)cc2)[C@@H](CO)N1C(=O)NC1CCCCC1
inhibition / %: 105
//
SMILES_STR: C[C@@H]1CN([C@H](C)CO)C(=O)c2cc(NS(=O)(=O)c3cccs3)ccc2O[C@@H](C)CCCCO[C@H]1CN(C)Cc1ccc(C(F)(F)F)cc1
inhibition / %: 101

---

test: blockers of Trypanosoma cruzi growth in host cells – cell-based, NIH3T3 host, beta-gal parasite, luminescence, cherry-pick, confirmation (AID 651739); conditions: T. cruzi beta-gal in NIH3T3, GalScreen luminescence, 90 h; at 8.35 µM; active compounds read high
Among all 5,600 compounds or so, about 4,100 (73%) were called active. Inconclusive results (about 4%) are left out. So high a share suggests a set chosen from earlier hits. A selection follows.
// values below are reported inhibition

SMILES_STR: CN(C)C(=O)c1ccc(-c2ccc3c(c2)[C@H]2[C@H](CCN2C(=O)c2ccc4c(c2)OCO4)[C@H](CO)N3)cc1
inhibition: 100% (active)

SMILES_STR: C[C@@H]1CN([C@@H](C)CO)C(=O)c2cc(NC(=O)Nc3ccc(C(F)(F)F)cc3)ccc2O[C@@H](C)CCCCO[C@H]1CN(C)C(=O)c1ccccc1
inhibition: 105% (active)

SMILES_STR: CN1C(=O)c2cc(NC(=O)c3cnccn3)ccc2OC[C@@H]2O[C@H](CC(=O)N[C@@H]3CCN(Cc4ccccc4)C3)CC[C@@H]21
inhibition: 99.8% (active)

SMILES_STR: CN1C(=O)c2cc(NC(=O)Nc3ccccc3F)ccc2OC[C@H]2O[C@H](CC(=O)NCc3ccc(-c4ccccc4)cc3)CC[C@H]21
inhibition: 108% (active)

SMILES_STR: CN1C(=O)c2cc(NC(=O)c3cnccn3)ccc2OC[C@@H]2O[C@@H](CC(=O)N[C@H]3CCN(Cc4ccccc4)C3)CC[C@H]21
inhibition: 71.5% (inactive)

SMILES_STR: C[C@@H]1CN([C@@H](C)CO)C(=O)CCCn2cc(nn2)CO[C@@H]1CN(C)S(=O)(=O)c1ccccc1F
inhibition: -12.9% (inactive)

SMILES_STR: O=C(c1ccccn1)N1CC[C@@H]2[C@H]1c1cc(-c3ccccc3)ccc1N[C@@H]2CO
inhibition: 107% (active)

SMILES_STR: CNC[C@H]1OCCCC[C@@H](C)Oc2ccc(NS(C)(=O)=O)cc2C(=O)N([C@H](C)CO)C[C@H]1C
inhibition: -10.3% (inactive)

SMILES_STR: C[C@H]1CN([C@@H](C)CO)C(=O)CCCn2cc(nn2)CO[C@H]1CN(C)C(=O)c1ccccc1
inhibition: 103% (active)
